- Test system: kinases
- assay-procedure: KINOMEscan kinase binding assay (Eurofins/DiscoveRx), % Ctrl
- measurement-setup: target EGFR(L747-E749del, A750P); 1 μM
Decide by % Ctrl, EGFR(L747-E749del, A750P): equal to or exceeding 80 % Ctrl means yes, less means no.

As a guide, the following entries are already answered.
substance-smiles	group
Cc1nn(C)c2c1-c1ccc3c(c1)/C(=C/c1[nH]ccc1C(=O)N(C)CCCO2)C(=O)N3	yes
Cc1cc2c([nH]1)/C=C1\C(=O)Nc3ccc(cc31)-c1c(noc1C)CNCCN(C)C2=O	no
Cc1cc2c([nH]1)/C=C1\C(=O)Nc3cc(Cl)c(cc31)OCCO[C@@H](C(=O)N1CCN(C)CC1)CN(C)C2=O	yes
Cc1cc2c([nH]1)/C=C1\C(=O)Nc3ccc(cc31)-c1c(C)nn(C)c1COCCN(C)C2=O	no
CN1CCOCCOc2cc3c(cc2Cl)NC(=O)/C3=C\c2[nH]ccc2C1=O	yes

For the next question, use this molecule.
Q: Decide: is the reported value of % Ctrl, EGFR(L747-E749del, A750P) for CN1CCSCCOc2cc3c(cc2Cl)NC(=O)/C3=C\c2[nH]ccc2C1=O equal to or greater than 80 % Ctrl?
Ans: yes
